# TARGET_ENTITY: human CB2R (Homo sapiens, UniProt P34972)
# Construct: host or cells: CHO-K1 (CHOK1hCB2_bgal)
# Sequence (P34972 whole entry): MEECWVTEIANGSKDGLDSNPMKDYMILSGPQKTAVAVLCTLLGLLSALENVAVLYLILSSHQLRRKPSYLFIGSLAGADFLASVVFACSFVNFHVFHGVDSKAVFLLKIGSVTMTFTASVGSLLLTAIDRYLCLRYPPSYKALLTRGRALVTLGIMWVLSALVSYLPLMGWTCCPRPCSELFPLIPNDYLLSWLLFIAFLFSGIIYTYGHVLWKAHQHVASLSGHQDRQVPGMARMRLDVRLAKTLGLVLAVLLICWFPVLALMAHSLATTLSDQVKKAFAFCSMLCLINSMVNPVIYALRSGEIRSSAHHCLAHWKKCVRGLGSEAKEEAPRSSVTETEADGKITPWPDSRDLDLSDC
# EXPERIMENTAL_PROTOCOL: [3H]CP55,940 displacement assay on CHO membranes, CB2R
# Assay type: binding
# CONDITIONS_USED: [3H]CP55,940 displacement, CHO membranes stably expressing human CB2R; means of three experiments; read-out: hCB2R Ki
VALUE_KIND: Ki (nM)
Dear colleague, please return just the value in nM, with no unit written.

Form field: reported Ki of CCC(CC)(NC(=O)c1cnc(OCCOC)c(-c2ccc(Cl)cc2)n1)C(=O)NCCOCCOCCNC(=O)OC(C)(C)C
701

Form field: reported Ki of CCC(CC)(NC(=O)c1cc(-c2cc(C(F)(F)F)ccc2C(F)(F)F)n(C[C@H]2CCCO2)c1C)C(=O)NCCOCCOCCNc1ccc([N+](=O)[O-])c2nsnc12
493

Form field: reported Ki of CCC(CC)(NC(=O)c1cc(-c2cc(C(F)(F)F)ccc2C(F)(F)F)n(C[C@H]2CCCO2)c1C)C(=O)NCCOCCOCCNc1ccc([N+](=O)[O-])c2n[nH]nc12
1620

Form field: reported Ki of CCOC(=O)C(CC)(CC)NC(=O)c1cc(-c2cc(C(F)(F)F)ccc2C(F)(F)F)n(C[C@H]2CCCO2)c1C
306

Ref: paper PMC11284800
